The reported numbers originate from paper PMC8159961.

TARGET OR TEST SYSTEM: SARS-CoV-2 3CLPro (Severe acute respiratory syndrome coronavirus 2, UniProt P0DTD1)
pIC50: −log10 of the molar value.
RECORDED ENDPOINT: pIC50

> print(dat)
                               compound  result.number
1  CS(=O)(=O)c1ccc(N2CCNCC2)cc1 [SX013]           4.51

---

Consider the following compounds and their measured %inh 5-HT6 exp_1 readings.
TARGET OR TEST SYSTEM: human 5-HT6 receptor (Homo sapiens, UniProt P50406)
Construct: expressed in transfected cells
Sequence (P50406 whole entry): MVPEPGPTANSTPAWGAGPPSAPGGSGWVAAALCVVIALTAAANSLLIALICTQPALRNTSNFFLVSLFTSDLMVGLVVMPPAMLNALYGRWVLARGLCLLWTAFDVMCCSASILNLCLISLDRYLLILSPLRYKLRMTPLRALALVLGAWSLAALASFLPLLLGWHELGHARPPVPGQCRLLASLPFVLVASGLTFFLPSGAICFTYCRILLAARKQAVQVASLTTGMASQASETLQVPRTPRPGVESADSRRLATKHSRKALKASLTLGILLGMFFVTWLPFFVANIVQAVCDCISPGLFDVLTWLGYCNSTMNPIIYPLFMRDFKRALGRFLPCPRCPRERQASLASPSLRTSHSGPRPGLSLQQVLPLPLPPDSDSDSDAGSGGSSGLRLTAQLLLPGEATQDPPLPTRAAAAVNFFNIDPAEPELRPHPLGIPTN
TEST: GPCR radioligand binding assay, [3H]-LSD displacement, HEK293 membranes
CONDITION DESCRIPTION: 5-HT6; replicate exp_1
RECORDED ENDPOINT: %inh 5-HT6 exp_1 (%)

> print(dat)
                                  compound  result.unit  result.number
1  Fc1ccc(CC2CCCNC2)cc1 (centres unmarked)            %             47
2            CC1(C)OC(=O)c2cc(Br)c(O)cc2O1            %             67
3    N#CC1CCS(=O)(=O)C1 (centres unmarked)            %             22
4                       O=C1CNCCN1c1ccccc1            %             50
5                     Oc1cnc(-c2ccccc2)nc1            %             42
6                       CCN(CC)c1cccc(C)c1            %             31
7                 N[C@H]1c2ccccc2C[C@H]1CO            %             25
8                     NC(c1ccccc1)c1ccccc1            %             16
